# targetOfAssay: CX3CR1 (Homo sapiens)
# Construct: THP-1 cells (a human leukemia monocytic cell line) washed twice and suspended in serum-free RPMI 1640 media; endogenous in cells; host or cells: THP-1
# Sequence (P49238 1-355): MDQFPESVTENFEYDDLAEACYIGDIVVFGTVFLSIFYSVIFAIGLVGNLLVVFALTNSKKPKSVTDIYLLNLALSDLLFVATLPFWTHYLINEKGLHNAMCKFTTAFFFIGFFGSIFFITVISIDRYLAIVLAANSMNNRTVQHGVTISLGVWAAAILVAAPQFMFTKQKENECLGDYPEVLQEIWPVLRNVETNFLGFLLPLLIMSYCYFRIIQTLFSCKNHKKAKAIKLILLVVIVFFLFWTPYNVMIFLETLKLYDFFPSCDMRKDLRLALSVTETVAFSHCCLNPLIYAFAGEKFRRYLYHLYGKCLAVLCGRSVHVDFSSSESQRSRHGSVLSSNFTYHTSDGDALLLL
# assayProcedure: Chemotaxis assay: RSV G modulation of CX3CR1, receptor-mediated chemotaxis of THP-1 cells (transwell)
# Format: cell-based
# measurementParameters: RSV G (CCR) variants; chemotaxis assay of Example 4; duplicate assays, standard deviations in parentheses
Where no end group is shown, it is not given here.
As shown below, each of these substances has a reported Chemotactic activity value.

Here are 2 substances together with their reported answers.
- substance: "K192→E + K193 →E: RSV G (CCR) double variant, charge switch (NDFHFEVFNFVPCSICSNNPTCWAICKRIPNEEPGKK; not fully specified (bridges); cysteine pairing not given here)"
  valueMeasured: "2.5 (0.7)"
- substance: "Wild type RSV G (CCR) (NDFHFEVFNFVPCSICSNNPTCWAICKRIPNKKPGKK; not fully specified (bridges); cysteine pairing not given here)"
  valueMeasured: "6.2 (0.7)"

Request: Which Chemotactic activity is reported for this substance? E166→K: RSV G (CCR) variant, E166 to K, charge switch (NDFHFKVFNFVPCSICSNNPTCWAICKRIPNKKPGKK; not fully specified (bridges); cysteine pairing not given here)
Result: 1.6 (0.7)

Request: Which Chemotactic activity is reported for this substance? E166→K + K187 →E: RSV G (CCR) double variant, charge switch (NDFHFKVFNFVPCSICSNNPTCWAICERIPNKKPGKK; not fully specified (bridges); cysteine pairing not given here)
Result: 1.8 (0.1)

Request: Which Chemotactic activity is reported for this substance? S177→W: RSV G (CCR) variant, S177 to W, steric clash (NDFHFEVFNFVPCSICWNNPTCWAICKRIPNKKPGKK; not fully specified (bridges); cysteine pairing not given here)
Result: 1.2 (0.4)

Request: Which Chemotactic activity is reported for this substance? H164→Y: RSV G (CCR) variant, H164 to Y, steric clash (NDFYFEVFNFVPCSICSNNPTCWAICKRIPNKKPGKK; not fully specified (bridges); cysteine pairing not given here)
Result: 3.8 (0.4)

Request: Which Chemotactic activity is reported for this substance? S177→R: RSV G (CCR) variant, substitution of arginine for serine at position 177 (NDFHFEVFNFVPCSICRNNPTCWAICKRIPNKKPGKK; not fully specified (bridges); cysteine pairing not given here)
Result: 0.9 (0.2)
